Below, each entry is listed alongside its reported pIC50.
Test details: Inhibition of Aspergillus oryzae Beta-galactosidase
Test settings: read-out: IC50
pIC50: −log10 of the molar value.

{"Compound": "Cc1cc(=O)oc2cc(O)cc(O)c12 [5,7-DIHYDROXY-4-METHYLCOUMARIN]", "pIC50": "< 3.70"}
{"Compound": "O=c1oc2cc(O)ccc2c(O)c1-c1c(O)ccc(O)c1-c1c(O)c2ccc(O)cc2oc1=O", "pIC50": "< 3.70"}

* * *

Test details: Inhibition of Aspergillus oryzae Beta-galactosidase at 400 uM

{"Compound": "O=c1oc2ccccc2cc1O [3-HYDROXYCOUMARIN]", "Unit": "%", "inhibition": 0}
{"Compound": "Cc1c(O)ccc2c(O)cc(=O)oc12", "Unit": "%", "inhibition": 0}
{"Compound": "O=c1cc(O)c2ccc(O)cc2o1", "Unit": "%", "inhibition": 0}
{"Compound": "Cc1cc(=O)oc2cc(O)cc(O)c12 [5,7-DIHYDROXY-4-METHYLCOUMARIN]", "Unit": "%", "inhibition": 53.9}
